- test.target: OTUB2 (OTUB2A) (Homo sapiens)
- Construct: full length residues 1-234, E. coli BL21(DE3)-R3, His tag removed by TEV, construct 27312 Da
- Sequence (Q96DC9 1-234): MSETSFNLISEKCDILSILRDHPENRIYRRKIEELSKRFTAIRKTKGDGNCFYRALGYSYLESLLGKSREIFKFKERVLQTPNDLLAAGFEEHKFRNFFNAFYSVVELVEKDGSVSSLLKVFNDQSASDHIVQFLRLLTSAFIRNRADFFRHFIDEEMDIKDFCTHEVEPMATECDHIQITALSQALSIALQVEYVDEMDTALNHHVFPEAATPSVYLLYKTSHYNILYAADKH
- Parameters: Intact protein LC/MS covalent labelling, fragments in pools of five, 200 uM each, 4 °C
- applied.conditions: 24 h, 4 °C, pool of five; 200 µM; covalent
endpoint.name: OTUB2
Numbers only.

Before answering, review these 5 worked examples.
# compound, OTUB2
rows = [
    ("C=CC(=O)NC1(C(=O)N2CCN(C)CC2)CCCC1", 0),
    ("Cc1ccc(S(=O)(=O)N2CCN(C(=O)CCl)CC2)c(C)c1", 0),
    ("COC(=O)c1ccc(NC(=O)CCl)cc1", 0),
    ("Cc1cc(C)cc(NC(=O)CCl)c1", 0.22),
    ("CC1CCCN(C(=O)CCl)C1 (stereo not drawn)", 0),
]

# input for lookup
Query string: Test system OTUB2 (OTUB2A) (Homo sapiens); read-out OTUB2; what value for `CC1(C)C(=O)Nc2ccccc2N1C(=O)CCl` ?
Result string: 0.32

###

For each entry below, report its NNMT value.
- test.target: NNMT (hNNMT) (Homo sapiens)
- Construct: wild type, N-terminal His6 tag kept (no cleavage described), E. coli, construct 31248 Da
- Design: Intact protein LC/MS covalent labelling, fragments in pools of five, 200 uM each, 4 °C
- applied.conditions: 24 h, 4 °C, pool of five; 200 µM; covalent
One number for each entry.

Consider the following illustrative entries.
# compound, test.target, NNMT
measured = [
    ("C=CC(=O)N1CCCN(c2ccc(-c3ccccc3)nn2)CC1", "NNMT (hNNMT) (Homo sapiens)", 0),
    ("Cc1ccccc1CC(=O)NNC(=O)CCl", "NNMT (hNNMT) (Homo sapiens)", 0),
    ("O=C(CCl)Nc1ccon1", "NNMT (hNNMT) (Homo sapiens)", 0),
    ("Cc1ccc(C(=O)N2CCN(C(=O)CCl)CC2)cc1", "NNMT (hNNMT) (Homo sapiens)", 0),
    ("O=C(CCl)NC1CCS(=O)(=O)C1 (centres unmarked)", "NNMT (hNNMT) (Homo sapiens)", 0),
]

I would be grateful if you could provide NNMT for each of the following entries.
1. O=C(CCl)Nc1ccccc1C(F)(F)F
2. O=C(CCl)N1Cc2ccccc2C(c2ccccc2)C1 (centres unmarked)

Result string:
1. 0.12
2. 0.65

###

- protocol.description: in vitro
- Parameters: species or system HB2, CCD841
- applied.conditions: human, hek293 cells
Labels assigned by viability at 48 h, 10 µM range: class 0 (below 60%), class 1 (60% to below 90%), class 2 (90% or more)

Here's what some known entries look like.
# compound, answer.label
records = [
    ("O=C(CCl)NCC12CC3CC(CC(C3)C1)C2", "class 0"),
    ("Cl.O=C(CCl)N1CCN(Cc2c(F)cccc2Cl)CC1", "class 0"),
    ("O=C(CCl)N(C1CC1)C1CCCc2ccccc21 (centres unmarked)", "class 0"),
    ("C=CC(=O)NC1CCCCC1n1cccn1 (centres unmarked)", "class 2"),
    ("CN1C(=O)c2ccc(NC(=O)CCl)cc2C1=O", "class 1"),
]

Query string: Band assignment needed for `Cc1cc(NC(=O)CCl)n(-c2ccc(F)cc2)n1` please.
Result string: class 0

Query string: Lab log: O=C(CCl)NC1CCS(=O)(=O)C1 (centres unmarked) — assign viability at 48 h, 10 µM category
Result string: class 2

Query string: Quick check: band for `O=C(CCl)N1CCN(S(=O)(=O)c2ccccc2F)CC1`
Result string: class 0

Query string: Quick check: band for `N#Cc1ccc(NC(=O)CCl)cc1`
Result string: class 0

###

- test.target: NUDT7 (Homo sapiens)
- Construct: residues 14-235, E. coli, pNIC28-Bsa4, N-terminal His6 tag removed by TEV, construct 26672 Da
- Sequence (P0C024 14-235): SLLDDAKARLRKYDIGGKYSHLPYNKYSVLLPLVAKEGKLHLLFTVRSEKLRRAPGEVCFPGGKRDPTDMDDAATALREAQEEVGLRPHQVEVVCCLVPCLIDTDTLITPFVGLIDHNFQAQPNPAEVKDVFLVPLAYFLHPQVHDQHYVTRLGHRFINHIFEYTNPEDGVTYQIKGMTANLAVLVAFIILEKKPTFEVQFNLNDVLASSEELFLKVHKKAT
- Design: Intact protein LC/MS covalent labelling, fragments in pools of five, 200 uM each, 4 °C
- applied.conditions: 24 h, 4 °C, pool of five; 200 µM; covalent
Task for the reader: assign each of the following compounds its reported NUDT7.
Answers are plain numbers.

# compound, reported.result
data = [
    ("Cc1cc(CNC(=O)CCl)ccc1F", 0),
    ("O=C(CCl)N1CCCC1c1ccc2c(c1)OCCCO2 (centres unmarked)", 0.88),
    ("Cc1ccc(S(=O)(=O)N2CCN(C(=O)CCl)CC2)c(C)c1", 0),
    ("CCN(C(=O)CCl)c1ccccc1C", 0.43),
    ("C=CC(=O)NCC1C2Cc3ccccc3C12 (centres unmarked)", 0),
    ("O=C(CCl)NC(=O)c1ccccc1Cl", 0),
    ("O=C(CCl)N1CCc2cc([N+](=O)[O-])ccc21", 0),
    ("Cc1cccc(C(=O)NNC(=O)CCl)c1", 0),
    ("O=C(CCl)NC(=O)NCc1ccccc1", 0),
    ("O=C(CCl)N=c1sccn1Cc1ccccc1", 0),
]

Batch request: NUDT7 per item, same order as input.
1. COC(=O)c1cc(Cl)cc(Cl)c1NC(=O)CCl
2. O=C(CCl)NC(=O)c1ccc[nH]1
3. C=CC(=O)N1CCCC(c2nc(-c3cccc(F)c3)no2)C1 (centres unmarked)
4. CCN1CCC(NC(=O)CCl)CC1.Cl

Result string:
0.17
0
0
0

###

- test.target: BSA (Bos taurus, UniProt P02769)
- Construct: gene ALB
- Sequence (P02769 whole entry): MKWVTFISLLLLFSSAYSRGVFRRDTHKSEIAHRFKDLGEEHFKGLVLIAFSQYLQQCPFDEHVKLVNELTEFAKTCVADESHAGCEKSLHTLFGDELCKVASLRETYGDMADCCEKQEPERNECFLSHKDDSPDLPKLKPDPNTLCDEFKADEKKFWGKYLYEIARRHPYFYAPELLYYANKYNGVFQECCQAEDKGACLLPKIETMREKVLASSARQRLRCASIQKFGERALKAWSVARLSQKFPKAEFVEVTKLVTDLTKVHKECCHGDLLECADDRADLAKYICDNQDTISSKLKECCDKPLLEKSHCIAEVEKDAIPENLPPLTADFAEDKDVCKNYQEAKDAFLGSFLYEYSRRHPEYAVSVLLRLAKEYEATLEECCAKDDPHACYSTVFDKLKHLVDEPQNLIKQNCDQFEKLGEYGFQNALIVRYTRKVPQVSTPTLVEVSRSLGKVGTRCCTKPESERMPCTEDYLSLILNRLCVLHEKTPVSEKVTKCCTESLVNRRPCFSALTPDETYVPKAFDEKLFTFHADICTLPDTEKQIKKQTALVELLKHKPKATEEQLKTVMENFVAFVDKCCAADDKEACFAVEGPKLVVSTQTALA
- Set-up: Intact protein LC/MS covalent labelling, fragments in pools of five, 200 uM each, 4 °C
- applied.conditions: 24 h, 4 °C, pool of five; 200 µM; covalent
endpoint.name: BSA
Numbers only.

Take a look at these entries with their results.
# compound, BSA
rows = [
    ("O=C(CCl)N(C1CCCC1)C1CC1 [PCM-0103064]", 0),
    ("O=C(CCl)N1CCCC(C(F)(F)F)C1 (centres unmarked) [PCM-0102676]", 0),
    ("C=CC(=O)N(C)CC(=O)N1c2ccccc2NC(=O)CC1C (centres unmarked) [PCM-0102729]", 0),
    ("Cl.O=C(CCl)Nc1ccc(Cl)cn1 [PCM-0103036]", 0.19),
    ("O=C(CCl)Nc1nc(-c2cccs2)cs1 [PCM-0102784]", 0),
    ("Cc1ccc(N(C(=O)CCl)C2C=CS(=O)(=O)C2)cc1 (centres unmarked) [PCM-0102539]", 0),
    ("O=C(CCl)Nc1ccc(I)cc1 [PCM-0102278]", 0.09),
    ("C=CC(=O)NCc1ccc2c(c1)C(C)(C)C(=O)N2 [PCM-0102570]", 0),
    ("CC(NC(=O)NC(=O)CCl)C1CC2CCC1C2 (centres unmarked) [PCM-0102997]", 0),
    ("Cl.O=C(CCl)N1CCN(c2cnccn2)CC1 [PCM-0102889]", 0),
]

Query string: Data request, read-out BSA, for O=C(CCl)N1CCCc2cc(S(=O)(=O)N3CCCC3)ccc21 [PCM-0102625]
Result string: 0

###

For each entry below, report its NNMT value.
- test.target: NNMT (hNNMT) (Homo sapiens, UniProt P40261)
- Construct: wild type, N-terminal His6 tag kept (no cleavage described), E. coli, construct 31248 Da
- Sequence (P40261 whole entry): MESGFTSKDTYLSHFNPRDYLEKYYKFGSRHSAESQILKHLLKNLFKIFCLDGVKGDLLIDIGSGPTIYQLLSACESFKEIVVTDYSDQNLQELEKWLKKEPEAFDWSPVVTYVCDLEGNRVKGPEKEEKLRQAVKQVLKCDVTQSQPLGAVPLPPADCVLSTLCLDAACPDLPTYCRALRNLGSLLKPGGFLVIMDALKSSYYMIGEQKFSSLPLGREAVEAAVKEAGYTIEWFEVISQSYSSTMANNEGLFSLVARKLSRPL
- Set-up: Intact protein LC/MS covalent labelling, fragments in pools of five, 200 uM each, 4 °C
- applied.conditions: 24 h, 4 °C, pool of five; 200 µM; covalent
Give bare numbers.

Below, each entry is followed by its recorded NNMT result.
# molecule, test.target, NNMT
rows = [
    ("CC(NC(=O)CCl)c1ccc2c(c1)CC(=O)N2 (centres unmarked)", "NNMT (hNNMT) (Homo sapiens, UniProt P40261)", 0),
    ("O=C(CCl)Nc1oncc1-c1ccccc1", "NNMT (hNNMT) (Homo sapiens, UniProt P40261)", 0.87),
    ("COc1cccc2sc(NC(=O)CCl)nc12.Cl", "NNMT (hNNMT) (Homo sapiens, UniProt P40261)", 1),
]

Provide NNMT values for the following items, in order.
1. O=C(CCl)Nc1c(F)cc(F)cc1Br
2. Cl.O=C(CCl)N1CCN(Cc2ccco2)CC1
3. O=C(CCl)NCc1cccc(F)c1

Result string:
1. 0.11
2. 0
3. 0

Quick one: give me NNMT for each item below, same order please.
1. O=C(CCl)NC1CCCCCCC1
2. Cc1ccccc1CN(C)C(=O)CCl

Result string:
1. 0
2. 0.13

Return reported NNMT values for all items listed beneath this line.
1. O=C(CCl)Nc1ccnn1C1CCCC1
2. O=C(CCl)NC(=O)Cc1ccccc1

Result string:
0
0

Query string: Find the recorded NNMT belonging to `C=CC(=O)NC1(c2nnc3n2CCCC3)CCC1` and report it.
Result string: 0
